Data origin: PubChem BioAssay AID720596

Biological target: Major prion protein (Homo sapiens) (UniProt P04156)
Assay: reduces human prion protein on the cell surface, primary screen, cell-based, TR-FRET (AID 720596); also: 0% = median of the test wells and 100% = reference compound wells
Conditions: cell surface PrPC, TR-FRET read-out; at 13.8 µM
Among all 370,000 compounds or so, about 1,600 (0.43%) were called active. Rule as the data show it: active = inhibition above about 24%; inactive = the rest. This excerpt belongs to a sample that is enriched for actives.
Return exactly one item of active, inactive

Known results for compounds:
• C=CCN1C(=O)C2(C(C(=O)OCC)=C(N)Oc3c2c(=O)oc2ccccc32)c2ccccc21 (stereo not given) = inactive
• CN1/C(=C\C(=O)c2oc3ccccc3c2N)C(C)(C)c2ccccc21 = active
• CCOc1ccccc1OCCCNCc1ccccc1 = inactive
• O=C(Nc1ccc(C2CC2(Cl)Cl)cc1)c1cccc([N+](=O)[O-])c1 (stereo not given) = active

Now for another entry.
Request: Given `CN1/C(=C\C=C2\N=C(c3ccc(F)cc3)OC2=O)C(C)(C)c2ccccc21` , state the outcome it received in this test.
Response: inactive

====

Target: Major prion protein (Homo sapiens) (UniProt P04156)
Assay: reduces human prion protein on the cell surface, primary screen, cell-based, TR-FRET (AID 720596); also: 0% = median of the test wells and 100% = reference compound wells
Conditions: cell surface PrPC, TR-FRET read-out; at 13.8 µM; hits give high values
Hit rate of the full screen: of about 370,000 compounds, about 1,600 (0.43%) were called active. Many of the other results were omitted from the sample, so actives are more common in it than they were.
value type: inhibition (%)
The reply should contain only the number, in %.

These solved cases illustrate the format of a correct answer.
- O=C(CN1CCCSc2ccccc21)N1CCN(S(=O)(=O)c2cccc(F)c2)CC1: -1.47
- COc1cccc2sc3cc(NCC[C@@H]4CCCN4C)ccc3c(=O)c12: 44.1
- Cn1cccc1C1(C(F)(F)F)NCCNC1=O (configuration not stated): -0.11
- O=C(CCN1CCCO1)N1CCCC(N2CCN(c3cccc(C(F)(F)F)c3)CC2)C1 (configuration not stated): 1.86
- CSc1nnc(CNC(=O)c2ccccc2)n1-c1ccc(F)cc1: 0.49
- Cc1ccc(C)c(NC(=O)CCS(=O)(=O)c2ccccc2)c1: 4.81
- CCN(C(=O)[C@@H](C1CC1)[C@@H](O)c1ccc2ccccc2c1)c1ccccc1: -3.85
- COc1ncnc2c1ncn2CCCNCCN1CCOCC1: -1.3

Request: // query inhibition value for entry `COC(=O)CSc1nc(C2CC2)nc2ccccc12`
Response: 34

Request: // query inhibition value for entry `O=C(Nc1nnc([C@H]2C[C@H](O)[C@@H](CO)O2)s1)c1cccc(Cl)c1`
Response: -5.24

Request: // query inhibition value for entry `CCc1c(C)[nH]c(=S)c(C#N)c1C`
Response: 10

====

Target: Major prion protein (Homo sapiens)
Test: reduces human prion protein on the cell surface, primary screen, cell-based, TR-FRET (AID 720596); also: 0% = median of the test wells and 100% = reference compound wells
Settings: cell surface PrPC, TR-FRET read-out; at 13.8 µM
Among all 370,000 compounds or so, about 1,600 (0.43%) were called active. Cut-off read from the data, not from the text of the source: active = inhibition above about 24%; inactive = the rest. What follows is part of a selection rich in actives, with near analogues and random picks from the rest.
Return exactly one item of true (1) for active, false (0) for inactive

• C=CCn1c(SCC(=O)c2c(N)n(C)c(=O)n(C)c2=O)nc2sc(CC)cc2c1=O = false (0)
• COc1ccc(-c2cc(C(F)(F)F)nc(S(C)(=O)=O)n2)cc1OC = true (1)
• CN(C(=O)COC(=O)CCCc1c[nH]c2ccccc12)c1c(N)n(Cc2ccccc2)c(=O)[nH]c1=O = false (0)
• CC(C)(C)NC(=O)c1cccc(NC(=O)Cc2ccc(Br)cc2)c1 = false (0)
• Cc1ccc(C)c(NC(=O)C2CC(=O)N(C(C)C)C2)c1 (configuration not stated) = false (0)

Request: Given `CN(CCc1ccccc1)C(=O)c1cccc(NC(=O)Cc2ccc([N+](=O)[O-])cc2)c1` , state the outcome it received in this test.
Response: false (0)

Request: Given `O=C(/C=C/c1ccc([N+](=O)[O-])o1)NNC(=O)c1ccc(F)cc1` , state the outcome it received in this test.
Response: true (1)

Request: Given `O=S(=O)(c1ccc(SCc2ccccc2)nc1)N1CCCCCC1` , state the outcome it received in this test.
Response: false (0)

Request: Given `CC(=O)c1c(C)[nH]c(C(=O)OCC(=O)Nc2c(C)n(C)n(-c3ccccc3)c2=O)c1C` , state the outcome it received in this test.
Response: false (0)

Request: Given `COc1ccc(C)cc1NC(=O)CSc1nnc2ccc(-c3ccccn3)nn12` , state the outcome it received in this test.
Response: false (0)

Request: Given `CN(O)C(=S)c1ccccc1` , state the outcome it received in this test.
Response: true (1)

====

Target: Major prion protein (Homo sapiens) (UniProt P04156)
Assay: reduces human prion protein on the cell surface, primary screen, cell-based, TR-FRET (AID 720596); also: 0% = median of the test wells and 100% = reference compound wells
Conditions: cell surface PrPC, TR-FRET read-out; at 13.8 µM; hits give high values
Among all 370,000 compounds or so, about 1,600 (0.43%) were called active. This excerpt belongs to a sample that is enriched for actives.
Measured inhibition, listed per entry.
The reply should contain only the number, in %.

Request: // query inhibition value for entry CCCCCCCC(=O)NC(Nc1ccccc1OC)C(Cl)(Cl)Cl (stereo unspecified)
Response: 1.28

Request: // query inhibition value for entry `Cc1ccc(C)c2[nH]c(=O)c(CCNC(=O)c3cccs3)cc12`
Response: 1.05

Request: // query inhibition value for entry `O=C(OCC(=O)N1CCCCC1)c1ccc(OC(F)(F)F)cc1`
Response: 8.76

====

Measured inhibition, listed per entry.
Target: Major prion protein (Homo sapiens)
Experiment: reduces human prion protein on the cell surface, primary screen, cell-based, TR-FRET (AID 720596); also: 0% = median of the test wells and 100% = reference compound wells
Settings: cell surface PrPC, TR-FRET read-out; at 13.8 µM; hits give high values
The campaign covered roughly 370,000 compounds. About 1,600 (0.43%) were called active. This excerpt belongs to a sample that is enriched for actives.
The reply should contain only the number, in %.

These solved cases illustrate the format of a correct answer.
* Cc1ccc(Cl)cc1N1CCN(C(=O)c2cccc3c(=O)c(C)c(-c4ccccc4)oc23)CC1 | 3.53
* CCCCCCCCCCCCn1ccc(=N)cc1 | 34.3
* Cc1c(Br)c([N+](=O)[O-])nn1C(C)C(=O)Nc1nccs1 (stereo unspecified) | -4.47
* N#Cc1c(N)nc2c3c(sc(=N)c2c1N)NC(=O)CC3c1ccccc1Cl (stereo unspecified) | 31.5
* COc1ccc2ccccc2c1CNc1nnnn1C | -6.2

Request: // query inhibition value for entry `CC(=O)c1ccc(S(=O)(=O)N(C)CCCC(=O)N(C)Cc2ccccc2F)cc1`
Response: 3.84

====

Biological target: Major prion protein (Homo sapiens) (UniProt P04156)
Test: reduces human prion protein on the cell surface, primary screen, cell-based, TR-FRET (AID 720596); also: 0% = median of the test wells and 100% = reference compound wells
Settings: cell surface PrPC, TR-FRET read-out; at 13.8 µM
Screen size: about 370,000 compounds; about 1,600 (0.43%) were called active. Rule as the data show it: active = inhibition above about 24%; inactive = the rest. Many of the other results were omitted from the sample, so actives are more common in it than they were.
Return exactly one item of active, inactive

Known results for molecules:
* Cc1c(S(=O)(=O)N2CC(C)CC(C)C2)c(=O)n(C)c(=O)n1C (stereo not drawn) | inactive
* Cc1ccc(NC(=O)N2c3ccccc3SC2c2ccco2)c(C)c1 (stereo not drawn) | inactive
* CCc1c(C)nc2cc(C)[nH]n2c1=O | inactive
* O=C(CC(O)(C(F)(F)F)C(F)(F)F)Nc1ccc(Cl)c(Cl)c1 | active
* O=S(=O)(c1ccccc1)N(Cc1cccc(F)c1)c1ccccc1 | inactive
* CCc1c(C)nc2cc(-c3cccs3)[nH]n2c1=O | active

Request: Given `Cc1cc(=O)n2[nH]c(-c3sccc3-n3c(C)ccc3C)cc2n1` , state the outcome it received in this test.
Response: inactive

Request: Given O=C(Nc1cc(F)cc(F)c1)OC1CCC12CCC(c1ccccc1)CC2 (stereo not drawn) , state the outcome it received in this test.
Response: inactive

====

Target: Major prion protein (Homo sapiens)
Test: reduces human prion protein on the cell surface, primary screen, cell-based, TR-FRET (AID 720596); also: 0% = median of the test wells and 100% = reference compound wells
Details: cell surface PrPC, TR-FRET read-out; at 13.8 µM; hits give high values
Out of some 370,000 compounds screened, about 1,600 (0.43%) were called active. This excerpt belongs to a sample that is enriched for actives.
value type: inhibition (%)
The reply should contain only the number, in %.

* COc1ccc(S(=O)(=O)N2CCOCC2)cc1NC(=O)CSc1cc(C)ccc1C | -4.51

Request: // query inhibition value for entry `COc1ccc2c(Cl)c(-c3nnco3)sc2c1`
Response: 24.9

Request: // query inhibition value for entry CCN1CCN(C(=O)C2CCCN(S(=O)(=O)c3ccc(OC)c(OC)c3)C2)CC1 (centres undefined)
Response: -1.58

Request: // query inhibition value for entry COc1ccc(C(=O)N2CCCCC2c2cc(C(=O)Nc3ccccc3)no2)cc1 (centres undefined)
Response: 6.89

Request: // query inhibition value for entry CC(=O)N1c2ccc(S(=O)(=O)N3CCCC(C(=O)Nc4ccc(C)cc4C)C3)cc2CC1C (centres undefined)
Response: 6.63

Request: // query inhibition value for entry O=C1CCCC2=C1C(c1cccs1)CC(=O)N2c1ccc(F)cc1 (centres undefined)
Response: 0.75
